test-system: C-C chemokine receptor type 6 (Homo sapiens)
assay-method-text: potency against CXCR6 with APJ panel – cell-based, beta-arrestin, DiscoveRx, uHTS hits, dose response (AID 624129)
condition-context: CXCR6 beta-arrestin (DiscoveRx) antagonist cell assay, CCR6, run 2, dose range 1
pIC50: −log10 of the molar value.
# if value of pIC50 reaches 5, tag Satisfied; if it stays below, tag Not satisfied

>  <compound>
COc1ccc(C(=O)/C=C/C(=O)N(CC(=O)NC2CCCCC2)CC2CCCO2)c(O)c1 (stereo not given)

>  <test-system>
C-C chemokine receptor type 6 (Homo sapiens)

>  <class-assignment>
Not satisfied

$$$$
>  <compound>
CCCC1CCC(=NNC(=S)NCCc2ccccc2)CC1 (stereo not given)

>  <test-system>
C-C chemokine receptor type 6 (Homo sapiens)

>  <class-assignment>
Not satisfied

$$$$
>  <compound>
Cc1cnc(C(=O)Nc2cccc3cccnc23)cn1

>  <test-system>
C-C chemokine receptor type 6 (Homo sapiens)

>  <class-assignment>
Not satisfied

$$$$
>  <compound>
O=[N+]([O-])c1ccc(S(=O)(=O)c2ccccc2)nc1

>  <test-system>
C-C chemokine receptor type 6 (Homo sapiens)

>  <class-assignment>
Not satisfied

$$$$
>  <compound>
O=[N+]([O-])c1c(NCCCO)cc(Sc2ccc(Cl)cc2)c2nonc12

>  <test-system>
C-C chemokine receptor type 6 (Homo sapiens)

>  <class-assignment>
Not satisfied

$$$$
>  <compound>
FC(F)(F)c1cnc(NNC(=S)Nc2ccccc2Cl)c(Cl)c1

>  <test-system>
C-C chemokine receptor type 6 (Homo sapiens)

>  <class-assignment>
Not satisfied

$$$$
>  <compound>
CC(=O)Nc1ccc(NCC(=O)c2ccccc2)cc1

>  <test-system>
C-C chemokine receptor type 6 (Homo sapiens)

>  <class-assignment>
Not satisfied

$$$$
>  <compound>
C=C1C(=O)[C@]23C[C@H]1CCC2[C@@]1(C)C(C[C@@H]3O)[C@](C)(C(=O)OC)CC[C@@H]1OC(C)=O (stereo not given in full)

>  <test-system>
C-C chemokine receptor type 6 (Homo sapiens)

>  <class-assignment>
Satisfied

$$$$
>  <compound>
O=C(Nc1cccc(C(F)(F)F)c1)Oc1ccc(Cl)c2cccnc12

>  <test-system>
C-C chemokine receptor type 6 (Homo sapiens)

>  <class-assignment>
Satisfied

$$$$
>  <compound>
CN(CCO)c1cc(Sc2nc3ccccc3s2)c2nonc2c1[N+](=O)[O-]

>  <test-system>
C-C chemokine receptor type 6 (Homo sapiens)

>  <class-assignment>
Satisfied

$$$$
>  <compound>
Cc1ccc(OCCN2C(=O)c3ccccc3C2=O)c([N+](=O)[O-])c1

>  <test-system>
C-C chemokine receptor type 6 (Homo sapiens)

>  <class-assignment>
Satisfied

$$$$
>  <compound>
Cc1ccc2c(Cl)cc(Cl)c(O)c2n1

>  <test-system>
C-C chemokine receptor type 6 (Homo sapiens)

>  <class-assignment>
Satisfied

$$$$
>  <compound>
COc1ccc(/C=C/c2ccc3cccc(O)c3n2)c(OC)c1OC

>  <test-system>
C-C chemokine receptor type 6 (Homo sapiens)

>  <class-assignment>
Satisfied

$$$$
>  <compound>
CC(C)(C)c1ccc(-n2nc(C#N)c(Cl)cc2=O)cc1

>  <test-system>
C-C chemokine receptor type 6 (Homo sapiens)

>  <class-assignment>
Satisfied

$$$$
>  <compound>
CCOC(=O)c1c(C)oc2c1c(C=NCc1ccccn1)c(O)c1ccccc12

>  <test-system>
C-C chemokine receptor type 6 (Homo sapiens)

>  <class-assignment>
Satisfied

$$$$
>  <compound>
CCCC(=O)OCCNc1cc(Sc2nc3ccccc3[nH]2)c2nonc2c1[N+](=O)[O-]

>  <test-system>
C-C chemokine receptor type 6 (Homo sapiens)

>  <class-assignment>
Satisfied

$$$$
>  <compound>
Cc1nc2c(-c3ccc(Cl)cc3)c(C)[nH]n2c(=O)c1Cc1ccccc1

>  <test-system>
C-C chemokine receptor type 6 (Homo sapiens)

>  <class-assignment>
Not satisfied

$$$$
>  <compound>
CCCCCCN1C=C/C(=C\C=C(C#N)C#N)c2ccccc21

>  <test-system>
C-C chemokine receptor type 6 (Homo sapiens)

>  <class-assignment>
Not satisfied

$$$$
>  <compound>
CCOc1ccc(NC(=O)CN(C)S(=O)(=O)c2cccs2)cc1

>  <test-system>
C-C chemokine receptor type 6 (Homo sapiens)

>  <class-assignment>
Not satisfied

$$$$
>  <compound>
COc1ccc(C[C@@H]2OC3(C=CC(=O)C=C3)O[C@H]2Cc2ccc(OC)cc2)cc1

>  <test-system>
C-C chemokine receptor type 6 (Homo sapiens)

>  <class-assignment>
Satisfied

$$$$
>  <compound>
Cc1ccc(CN2C(=O)C(Cc3ccccc3)Nc3ncnc(N4CCN(c5ccccc5)CC4)c32)cc1 (stereo not given)

>  <test-system>
C-C chemokine receptor type 6 (Homo sapiens)

>  <class-assignment>
Satisfied

$$$$
>  <compound>
CCS(=O)(=O)c1ncc(Cl)c(C(=O)Nc2ccc(S(=O)(=O)N3CCC(C)CC3)cc2)n1

>  <test-system>
C-C chemokine receptor type 6 (Homo sapiens)

>  <class-assignment>
Satisfied

$$$$
>  <compound>
COc1ccc(C(=O)/C(=C\c2ccco2)N2C=CC=CC2=C(C#N)C#N)cc1

>  <test-system>
C-C chemokine receptor type 6 (Homo sapiens)

>  <class-assignment>
Satisfied

$$$$
>  <compound>
O=[N+]([O-])c1cc2oc3c(c2c(C=NCc2ccccc2)c1O)CCCC3

>  <test-system>
C-C chemokine receptor type 6 (Homo sapiens)

>  <class-assignment>
Not satisfied

$$$$
>  <compound>
COC(CNC(=O)c1cc(C(=O)c2c(-c3c(Cl)cccc3Cl)noc2C)c[nH]1)OC

>  <test-system>
C-C chemokine receptor type 6 (Homo sapiens)

>  <class-assignment>
Not satisfied

$$$$
